# experiment description: gradient 5% acetonitrile 3 min, to 50% in 2 min, to 85% in 15 min, held 3 min, 100 µL/min
# test settings: column: Zorbax Extend-C18 2.1 x 50 mm; eluents: water / acetonitrile, 0.1% formic acid
RP-LC retention time vs 800 s: less than gives MET; not less than gives NOT MET.

Use the examples below as a reference point.
1. CCCn1c(=O)c(C)nc2cc(-c3noc(-c4ccsc4)n3)ccc21; NOT MET
2. CCOc1ccc(-n2c(=O)c3sccc3n(Cc3nc(-c4ccc(F)c(Cl)c4)no3)c2=O)cc1; NOT MET
3. CCOC(=O)C1CCCN(CC(O)COc2ccccc2Br)C1 (stereo not given); MET
4. O=C1COc2ccc(-c3csc(NC(=O)c4ccc(Cl)cc4)n3)cc2N1; NOT MET
5. O=C(NCc1csc(-c2ccccc2)n1)C1CCN(S(=O)(=O)c2ccccc2F)CC1; NOT MET
6. O=c1n(Cc2cccc(C(F)(F)F)c2)nc2c(S(=O)(=O)N3CCCCC3)cccn12; NOT MET
7. COc1ccc(NC(=O)CSc2ccc(-c3cccs3)nn2)c(OC)c1; NOT MET
8. CC(C)c1cc(C(=O)N2CCOCC2)nc2ccnn12; MET

Asked: Is 800 s strictly greater than the molecule's reported RP-LC retention time? molecule: O=S(=O)(c1cccn2c(SCc3ccc(Cl)cc3)nnc12)N1CCCC1
Given back: NOT MET

Asked: Is 800 s strictly greater than the molecule's reported RP-LC retention time? molecule: CCOc1ccccc1C(=O)N1CCCCC1c1nncn1CC1CC1 (stereo not given)
Given back: MET

Asked: Is 800 s strictly greater than the molecule's reported RP-LC retention time? molecule: CCc1ccc2occ(CC(=O)N(Cc3ccc(N(C)C)cc3)C3CCS(=O)(=O)C3)c2c1 (stereo not given)
Given back: NOT MET

Asked: Is 800 s strictly greater than the molecule's reported RP-LC retention time? molecule: Cc1cc(-c2nnc(-c3ccccc3)o2)c(C)n1CC(=O)Nc1ccccc1F
Given back: NOT MET

* * *

Hi there, I'd appreciate the recorded RP-LC retention time for every entry that follows.
# experiment description: gradient 5% acetonitrile 3 min, to 50% in 2 min, to 85% in 15 min, held 3 min, 100 µL/min
# test settings: column: Zorbax Extend-C18 2.1 x 50 mm; eluents: water / acetonitrile, 0.1% formic acid
Give bare numbers, in s.

A selection of reference data follows.
1) Cc1oc(C2CCN(C(=O)NCc3cccc(F)c3)CC2)nc1C(=O)N1CCOCC1; 903
2) CCOC(=O)c1c(S(=O)(=O)N2CCC(C(=O)NCCC3=CCCCC3)CC2)c(C)n(C)c1C; 896
3) Cc1cc(N2C(=O)CCS2(=O)=O)cc(C)c1S(=O)(=O)N1CCC(C(N)=O)CC1; 648
4) CCC(=O)N1CCc2cc(N3CC(C(=O)NCc4ccccc4C)CC3=O)ccc21 (stereo not given); 750

Please look at the items below and tell me RP-LC retention time for each one, in order.
1. Cc1noc(-c2ccc(=O)n(Cc3ccccc3C)n2)n1
2. CCc1noc(NC(C)=O)c1-c1ccc(C)c(S(=O)(=O)NCc2ccco2)c1
3. COCCC1CCN(C(=O)CN(C)C(=O)c2n[nH]c3ccccc23)CC1
4. COc1ccc(C2C(C(=O)NCC3CCCO3)c3cc(OC)c(OC)cc3C(=O)N2C)cc1OC (stereo not given)
5. CCCNC(=O)C1CCCN(c2nc3ncn(CC(=O)Nc4cccc(Cl)c4)c(=O)c3s2)C1 (stereo not given)

Given back:
1: 851; 2: 766; 3: 661; 4: 652; 5: 731

Please look at the items below and tell me RP-LC retention time for each one, in order.
1. C/C(=N\O)C1CC(CC(=O)O)C1(C)C (stereo not given)
2. CCOc1cc(-c2ccc(F)cc2)nc2ccc(NS(=O)(=O)c3ccc(C#N)cc3)cc12
3. Cc1ccc(-n2ncc3c(=O)n(Cc4nc(-c5ccc(OC(F)(F)F)cc5)no4)cnc32)cc1
4. Cc1nn(-c2nc(-c3ccc(Cl)cc3)cs2)c(C)c1CC(=O)N1CCCCC1
5. CCCCNC(=O)CCc1c(C)n(CC)c2nc(-c3ccccc3)nn2c1=O
6. COc1ccc(C2C(C(=O)NCc3ccccc3OC)c3cc(OC)c(OC)cc3C(=O)N2C)cc1 (stereo not given)

Given back:
[688, 801, 1200, 1260, 796, 802]

* * *

# experiment description: gradient 5% acetonitrile 3 min, to 50% in 2 min, to 85% in 15 min, held 3 min, 100 µL/min
# test settings: column: Zorbax Extend-C18 2.1 x 50 mm; eluents: water / acetonitrile, 0.1% formic acid
measurement name: RP-LC retention time (s)
Give bare numbers, in s.

A selection of reference data follows.
1) Cc1ccc(CNC(=O)N2CCC(C(=O)NCc3csc(C)n3)CC2)cc1; 661
2) Cc1ccc(S(=O)(=O)N2CCC3(CC2)CN(C)CC3c2noc(C3CC3)n2)cc1 (centres undefined); 638
3) COc1ccc(C(=O)NC2(c3nc(C)no3)CCCCC2)c(C)c1; 855
4) Cc1cccc2nnc(N3CCC(C(=O)NCc4ccc(C(F)(F)F)cc4)CC3)n12; 740
5) CCn1cc(-c2ccccc2)cc1C(=O)NC1CCCC1; 1080
6) CC(Cc1ccco1)NC(=O)CN1C(=O)C2CCCCN2c2ccc(S(=O)(=O)N(C)C)cc21 (centres undefined); 879
7) CC(C)C(=O)NCCc1nc2cccnc2n1C; 545
8) Cc1cccc(NC(=O)C2CCCN(S(=O)(=O)c3cn(C(C)C)cn3)C2)c1C (centres undefined); 878

Please look at the items below and tell me RP-LC retention time for each one, in order.
1. COc1ccc(C2C(C(=O)Nc3cc(OC)c(OC)c(OC)c3)c3ccccc3C(=O)N2C)cc1 (centres undefined)
2. Cc1ccc(NC(=O)N2CCC(n3c(-c4ccco4)nc4cccnc43)C2)cc1 (centres undefined)
3. CC(C)n1c(SCC(=O)N(C)C)nnc1-c1ccc2c(c1)OCCCO2
4. Cn1cc(-c2cc3n(n2)CCC(=O)N3CCCC(=O)NCc2cccnc2)c2ccccc21

Given back:
1. 815
2. 776
3. 691
4. 616

Please look at the items below and tell me RP-LC retention time for each one, in order.
1. Cc1cccc(-n2c(=O)c3c(cc(C)n3C)n(CC(=O)Nc3ccc(C)c(Cl)c3)c2=O)c1
2. Cc1ccc(C(=O)NC2CCN(c3ccccc3)C2=O)cc1F (centres undefined)
3. O=C(NCCn1nc(-n2ccnc2)ccc1=O)c1cc(-c2ccccc2)on1

Given back:
1. 960
2. 823
3. 572

Please look at the items below and tell me RP-LC retention time for each one, in order.
1. CN(C)S(=O)(=O)c1ccc(C(=O)NCc2ccsc2)cc1
2. COc1ccc(-c2nn(-c3ccccc3)cc2C#N)cc1[N+](=O)[O-]
3. O=C(Cn1cnc(-c2noc(-c3ccc(F)cc3)n2)c1)NCc1ccc(F)cc1
4. CCS(=O)(=O)c1ccc2c(c1)N(Cc1nc(-c3ccc(OC)c(OC)c3)no1)C(=O)CO2

Given back:
730
1010
857
817

Please look at the items below and tell me RP-LC retention time for each one, in order.
1. O=C(Cn1c(=O)c(S(=O)(=O)c2ccccc2)cc2ccccc21)NCc1ccccc1Cl
2. O=C(NCc1cc(F)ccc1F)C1CCN(c2cncnc2N2CCCC2)CC1

Given back:
1. 895
2. 653

Please look at the items below and tell me RP-LC retention time for each one, in order.
1. CC1CCC(C(=O)Nc2cccc(-c3nnc4n3CCCC4)c2)CC1 (centres undefined)
2. COc1ccc(NC(=O)C2CCN(S(=O)(=O)c3ccc4c(c3)NC(=O)CO4)CC2)cc1OC
3. Cc1nc(C)c(-c2ccc(=O)n(CCNC(=O)c3csc(-c4ccccc4)n3)n2)s1
4. CCNC(=O)C1CCCN(c2nc3ncn(CC(=O)Nc4cc(F)ccc4F)c(=O)c3s2)C1 (centres undefined)
5. Cc1c(-c2cccc(NC(=O)c3cccc(Br)c3)c2)nc2ncccn12

Given back:
1. 756
2. 715
3. 683
4. 685
5. 696

Please look at the items below and tell me RP-LC retention time for each one, in order.
1. CCc1ccc(CNC(=O)C2CCN(Cc3cn(CC)c4ccc(Cl)cc34)CC2)cc1
2. CC(=O)Nc1ccc(S(=O)(=O)N2CCc3c(c(-c4nnc(-c5ccc(F)cc5)o4)nn3C)C2)cc1

Given back:
[825, 783]

Asked: Dear colleague, please send me the reported RP-LC retention time for Cc1ccc(S(=O)(=O)N2CCc3ccc(NC(=O)Cc4cccs4)cc3C2)cc1 when you can.
Given back: 942

* * *

# experiment description: gradient 5% acetonitrile 3 min, to 50% in 2 min, to 85% in 15 min, held 3 min, 100 µL/min
# test settings: column: Zorbax Extend-C18 2.1 x 50 mm; eluents: water / acetonitrile, 0.1% formic acid
measurement name: RP-LC retention time (s)
Answers are plain numbers, in s.

1) CC(C)NC(=O)c1cc(N2CCCC2)n2nccc2n1; 784
2) CCOC(=O)c1ccccc1NC(=O)Cn1cnc2nc(N3CCC(C(=O)NC)CC3)sc2c1=O; 701

The record that follows has no RP-LC retention time shown yet.
Asked: Dear colleague, please send me the reported RP-LC retention time for COC(=O)c1cc(S(=O)(=O)N2CCCC2C(=O)Nc2c(Cl)cc(OC)cc2OC)cn1C (stereo not drawn) when you can.
Given back: 930
